Target: UniProt:Q9UNQ0
Sequence (Q9UNQ0 1-655): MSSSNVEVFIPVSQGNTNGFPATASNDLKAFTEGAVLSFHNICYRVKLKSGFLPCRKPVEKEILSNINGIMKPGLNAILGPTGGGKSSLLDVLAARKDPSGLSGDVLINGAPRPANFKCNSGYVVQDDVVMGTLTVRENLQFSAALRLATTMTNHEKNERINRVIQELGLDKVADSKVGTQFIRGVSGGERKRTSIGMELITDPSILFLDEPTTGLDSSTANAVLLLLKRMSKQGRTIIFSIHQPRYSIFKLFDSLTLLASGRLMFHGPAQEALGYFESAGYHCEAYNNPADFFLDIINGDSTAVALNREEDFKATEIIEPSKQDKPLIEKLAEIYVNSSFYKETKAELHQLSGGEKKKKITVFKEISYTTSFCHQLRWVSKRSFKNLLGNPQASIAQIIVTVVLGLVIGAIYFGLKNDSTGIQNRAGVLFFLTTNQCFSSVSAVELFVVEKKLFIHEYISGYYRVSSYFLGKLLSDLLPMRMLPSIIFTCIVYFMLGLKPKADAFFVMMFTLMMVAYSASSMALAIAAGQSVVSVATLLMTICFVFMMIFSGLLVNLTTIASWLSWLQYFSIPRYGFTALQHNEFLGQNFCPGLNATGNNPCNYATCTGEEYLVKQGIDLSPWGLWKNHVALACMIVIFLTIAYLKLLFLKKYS
Assay: in vitro
Conditions: pH 6.8
MEASURE_NAME: inhibition at 20 min, 2.5 µM

[ask] Find the measured inhibition at 20 min, 2.5 µM of CNC(=O)[C@]12C[C@@H]1[C@@H](n1cnc3c(NCc4cccc(-n5cc(-c6ccc(F)c(F)c6)nn5)c4)nc(C#Cc4ccc(F)cc4)nc31)[C@H](O)[C@@H]2O and report it.
[reply] ≥ 50%

###

molecular target: UniProt Q9UNQ0; settings: human, 20 min, 2.5 μM, pH 6.8
MEASURE_NAME: modulation of ABCG2 ATP hydrolysis

CNC(=O)[C@]12C[C@@H]1[C@@H](n1cnc3c(NCc4cccc(Cl)c4)nc(-n4cc(-c5ccc(F)c(F)c5)nn4)nc31)[C@H](O)[C@@H]2O ... inhibited only at 10 μM
CNC(=O)[C@]12C[C@@H]1[C@@H](n1cnc3c(NCc4cccc(-n5cc(-c6ccc(F)c(F)c6)nn5)c4)nc(C#Cc4ccc(F)cc4F)nc31)[C@H](O)[C@@H]2O ... inhibited only at 10 μM
CNC(=O)[C@]12C[C@@H]1[C@@H](n1cnc3c(NCc4cccc(-n5cc(-c6ccc(F)c(F)c6)nn5)c4)nc(C#Cc4ccc(C(F)(F)F)cc4)nc31)[C@H](O)[C@@H]2O ... inhibited only at 10 μM
